Test system: mouse monoclonal antibody MHM-9H (IgG2b, k; hybridoma FERM BP-4524) for mevalonic acid
Assay: Cross-reaction of mouse monoclonal antibody with analogues of mevalonic acid (enzyme immunoassay, solid phase first antibody)
Assay type: binding
Conditions: antibody MHM-9H; relative to mevalonic acid = 100
Protocol: A solution of antibody (prepared in example 10 as hereinafter defined) was placed with 100 μl portions in a polystyrene 96 wells micro plate (prepared by NUNC Co.). The micro plate was allowed to stand for 1.5 hours at room temperature to be fixed. […] After the removal of an aqueous layer, 50 mM PB (100 μl) containing mevalonic acid analogues of various concentrations was added. […] After the reaction was stopped by the addition of 1N sulfuric acid (50 μl), and the absorbance was measured at 450 nm. […]
readout type: cross-reactivity

compound="CC(O)(CC(=O)O)CC(=O)O [3-Hydroxy-3-methylglutaric acid]" target_desc="mouse monoclonal antibody MHM-9H (IgG2b, k; hybridoma FERM BP-4524) for mevalonic acid" readout_type=cross-reactivity observed_value="< 0.001%"
compound="CC(CC(=O)O)CC(=O)O [3-Methylglutaric acid]" target_desc="mouse monoclonal antibody MHM-9H (IgG2b, k; hybridoma FERM BP-4524) for mevalonic acid" readout_type=cross-reactivity observed_value="< 0.001%"
compound="C[C@@](O)(CCO)CC(=O)O [Mevalonic acid]" target_desc="mouse monoclonal antibody MHM-9H (IgG2b, k; hybridoma FERM BP-4524) for mevalonic acid" readout_type=cross-reactivity observed_value=100%
compound="O=C(O)CCCC(=O)O [Glutaric acid]" target_desc="mouse monoclonal antibody MHM-9H (IgG2b, k; hybridoma FERM BP-4524) for mevalonic acid" readout_type=cross-reactivity observed_value="< 0.001%"
